- Target Or System: Delta-type opioid receptor (Homo sapiens)
- Sequence (P41143 whole entry): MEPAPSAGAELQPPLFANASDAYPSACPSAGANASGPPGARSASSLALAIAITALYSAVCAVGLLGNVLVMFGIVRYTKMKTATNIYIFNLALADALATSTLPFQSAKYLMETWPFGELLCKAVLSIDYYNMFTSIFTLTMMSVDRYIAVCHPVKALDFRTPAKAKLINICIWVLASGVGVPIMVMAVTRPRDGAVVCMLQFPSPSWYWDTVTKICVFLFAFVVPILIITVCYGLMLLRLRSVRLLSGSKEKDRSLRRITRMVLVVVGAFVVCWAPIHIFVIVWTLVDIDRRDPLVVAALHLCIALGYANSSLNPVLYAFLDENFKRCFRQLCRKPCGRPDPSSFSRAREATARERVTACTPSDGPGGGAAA
- Experiment Summary: Displacement of [3H]naltrindole from human delta opioid receptor expressed in CHO cells
Examples of compounds with documented Ki follow.
Endpoint: Ki (nM)

Compound | Result
Oc1cc2c(cc1CNCCCCCCNCc1cc3c(cc1O)[C@@]14CCCC[C@H]1[C@@H](C3)N(CC1CCC1)CC4)C[C@@H]1[C@@H]3CCCC[C@]23CCN1CC1CCC1 | 850
Oc1cc2c(cc1C(O)CCCCCCCCCCC(O)c1cc3c(cc1O)[C@@]14CCCC[C@H]1[C@@H](C3)N(CC1CCC1)CC4)C[C@@H]1[C@@H]3CCCC[C@]23CCN1CC1CCC1 (mixture of isomers) | 730
CCN(CCCCCCN(CC)Cc1cc2c(cc1O)[C@@]13CCCC[C@H]1[C@@H](C2)N(CC1CCC1)CC3)Cc1cc2c(cc1O)[C@@]13CCCC[C@H]1[C@@H](C2)N(CC1CCC1)CC3 | 710
Oc1cc2c(cc1CNCCCCCCCCNCc1cc3c(cc1O)[C@@]14CCCC[C@H]1[C@@H](C3)N(CC1CCC1)CC4)C[C@@H]1[C@@H]3CCCC[C@]23CCN1CC1CCC1 | 1000
Ic1ccc(CNc2ccc3c(c2)[C@@]24CCCC[C@H]2[C@@H](C3)N(CC2CC2)CC4)cc1 | 34
CN1CC[C@]23CCCC[C@H]2[C@H]1Cc1ccc(OC(=O)Nc2ccc(I)cc2)cc13 | 160
Oc1cc2c(cc1CNCCCCNCc1cc3c(cc1O)[C@@]14CCCC[C@H]1[C@@H](C3)N(CC1CCC1)CC4)C[C@@H]1[C@@H]3CCCC[C@]23CCN1CC1CCC1 | 190

* * *

- Target Or System: Mu-type opioid receptor (Homo sapiens)
Flag rule - Ki less than 0.3 nM flags criterion met; the remaining entries get criterion not met.

Molecule | Group
COc1ccc(Nc2ccc3c(c2)[C@@]24CCCC[C@H]2[C@@H](C3)N(CC2CC2)CC4)cc1 | criterion met
CN1CC[C@]23CCCC[C@H]2[C@H]1Cc1cc(CNCc2ccccc2)c(O)cc13 | criterion not met
COc1ccc(CNc2ccc3c(c2)[C@@]24CCCC[C@H]2[C@@H](C3)N(CC2CC2)CC4)cc1 | criterion not met
CCCCC(O)c1cc2c(cc1O)[C@@]13CCCC[C@H]1[C@@H](C2)N(CC1CCC1)CC3 (mixture of isomers) | criterion not met
Oc1cc2c(cc1CNCCCCCCNCc1cc3c(cc1O)[C@@]14CCCC[C@H]1[C@@H](C3)N(CC1CCC1)CC4)C[C@@H]1[C@@H]3CCCC[C@]23CCN1CC1CCC1 | criterion not met
COc1ccc(CN(Cc2ccc(OC)cc2)c2ccc3c(c2)[C@@]24CCCC[C@H]2[C@@H](C3)N(CC2CC2)CC4)cc1 | criterion not met
NCc1cc2c(cc1O)[C@@]13CCCC[C@H]1[C@@H](C2)N(CC1CCC1)CC3 | criterion not met
c1ccc(Nc2ccc3c(c2)[C@@]24CCCC[C@H]2[C@@H](C3)N(CC2CC2)CC4)cc1 | criterion met

* * *

- Target Or System: Kappa-type opioid receptor (Homo sapiens, UniProt P41145)
- Sequence (P41145 whole entry): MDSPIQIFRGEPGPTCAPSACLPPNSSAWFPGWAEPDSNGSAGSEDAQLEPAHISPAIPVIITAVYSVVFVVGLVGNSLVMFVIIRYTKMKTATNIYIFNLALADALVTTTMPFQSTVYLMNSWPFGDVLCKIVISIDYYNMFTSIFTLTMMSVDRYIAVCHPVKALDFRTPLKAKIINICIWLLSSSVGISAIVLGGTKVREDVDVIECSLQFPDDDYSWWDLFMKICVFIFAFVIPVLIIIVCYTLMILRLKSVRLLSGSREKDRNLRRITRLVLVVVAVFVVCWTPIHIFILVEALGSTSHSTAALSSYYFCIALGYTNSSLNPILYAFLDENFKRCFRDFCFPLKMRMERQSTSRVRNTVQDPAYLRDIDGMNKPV
pKi: −log10 of the molar value.
So basically: pKi at 9 or higher? That is 1. Lower than 9? That is 0.

Chemical Structure | Group
CCN(CCCCN(CC)Cc1cc2c(cc1O)[C@@]13CCCC[C@H]1[C@@H](C2)N(CC1CCC1)CC3)Cc1cc2c(cc1O)[C@@]13CCCC[C@H]1[C@@H](C2)N(CC1CCC1)CC3 | 0
Oc1cc2c(cc1CNCCCCCCNCc1cc3c(cc1O)[C@@]14CCCC[C@H]1[C@@H](C3)N(CC1CCC1)CC4)C[C@@H]1[C@@H]3CCCC[C@]23CCN1CC1CCC1 | 0
Ic1ccc(CN(Cc2ccc(I)cc2)c2ccc3c(c2)[C@@]24CCCC[C@H]2[C@@H](C3)N(CC2CCC2)CC4)cc1 | 0
c1ccc(CNc2ccc3c(c2)[C@@]24CCCC[C@H]2[C@@H](C3)N(CC2CC2)CC4)cc1 | 1
COc1ccc(CN(Cc2ccc(OC)cc2)c2ccc3c(c2)[C@@]24CCCC[C@H]2[C@@H](C3)N(CC2CC2)CC4)cc1 | 0

* * *

- Target Or System: Mu-type opioid receptor (Homo sapiens, UniProt P35372)
- Sequence (P35372 whole entry): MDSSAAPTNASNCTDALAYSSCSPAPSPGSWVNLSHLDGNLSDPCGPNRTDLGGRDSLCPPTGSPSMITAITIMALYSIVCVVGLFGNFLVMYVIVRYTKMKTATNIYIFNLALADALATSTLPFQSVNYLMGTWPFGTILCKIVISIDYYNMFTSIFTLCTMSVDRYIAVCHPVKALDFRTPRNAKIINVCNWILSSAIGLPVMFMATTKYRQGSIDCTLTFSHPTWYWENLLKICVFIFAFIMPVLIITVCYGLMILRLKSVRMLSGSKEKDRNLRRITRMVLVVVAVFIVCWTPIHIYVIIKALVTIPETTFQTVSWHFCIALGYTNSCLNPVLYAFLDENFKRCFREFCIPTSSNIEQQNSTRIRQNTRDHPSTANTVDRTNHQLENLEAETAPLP

Molecule | Target Or System | Ki, nM
CN1CC[C@]23CCCC[C@H]2[C@H]1Cc1cc2c(cc13)OCN(Cc1ccccc1)C2 | Mu-type opioid receptor (Homo sapiens, UniProt P35372) | 110
Ic1ccc(CN(Cc2ccc(I)cc2)c2ccc3c(c2)[C@@]24CCCC[C@H]2[C@@H](C3)N(CC2CCC2)CC4)cc1 | Mu-type opioid receptor (Homo sapiens, UniProt P35372) | 16
O=C(Nc1ccc(I)cc1)Oc1ccc2c(c1)[C@@]13CCCC[C@H]1[C@@H](C2)N(CC1CCC1)CC3 | Mu-type opioid receptor (Homo sapiens, UniProt P35372) | 1.1
Ic1ccc(CNc2ccc3c(c2)[C@@]24CCCC[C@H]2[C@@H](C3)N(CC2CC2)CC4)cc1 | Mu-type opioid receptor (Homo sapiens, UniProt P35372) | 0.71
c1ccc(Nc2ccc3c(c2)[C@@]24CCCC[C@H]2[C@@H](C3)N(CC2CCC2)CC4)cc1 | Mu-type opioid receptor (Homo sapiens, UniProt P35372) | 1.7
COc1ccc(Nc2ccc3c(c2)[C@@]24CCCC[C@H]2[C@@H](C3)N(CC2CCC2)CC4)cc1 | Mu-type opioid receptor (Homo sapiens, UniProt P35372) | 0.61
CN1CC[C@]23CCCC[C@H]2[C@H]1Cc1ccc(OC(=O)Nc2ccc(I)cc2)cc13 | Mu-type opioid receptor (Homo sapiens, UniProt P35372) | 0.34
O=C(CCCCC(=O)NCc1cc2c(cc1O)[C@@]13CCCC[C@H]1[C@@H](C2)N(CC1CCC1)CC3)NCc1cc2c(cc1O)[C@@]13CCCC[C@H]1[C@@H](C2)N(CC1CCC1)CC3 | Mu-type opioid receptor (Homo sapiens, UniProt P35372) | 36
O=C(Nc1ccc(I)cc1)Nc1ccc2c(c1)[C@@]13CCCC[C@H]1[C@@H](C2)N(CC1CC1)CC3 | Mu-type opioid receptor (Homo sapiens, UniProt P35372) | 23
CCC(O)c1cc2c(cc1O)[C@@]13CCCC[C@H]1[C@@H](C2)N(CC1CCC1)CC3 (mixture of isomers) | Mu-type opioid receptor (Homo sapiens, UniProt P35372) | 180

* * *

Reported Ratio Ki is given for each of the following molecules.
- Species on record: Homo sapiens
- Experiment Summary: Selectivity ratio of Ki for human kappa opioid receptor to Ki for human mu opioid receptor

Molecule | Ratio Ki
O=C(Nc1ccc(I)cc1)Oc1ccc2c(c1)[C@@]13CCCC[C@H]1[C@@H](C2)N(CC1CCC1)CC3 | 1
O=C(Nc1ccc(I)cc1)Oc1ccc2c(c1)[C@@]13CCCC[C@H]1[C@@H](C2)N(CC1CC1)CC3 | 1
CCCCC(O)c1cc2c(cc1O)[C@@]13CCCC[C@H]1[C@@H](C2)N(CC1CCC1)CC3 (mixture of isomers) | 1
COc1ccc(Nc2ccc3c(c2)[C@@]24CCCC[C@H]2[C@@H](C3)N(CC2CC2)CC4)cc1 | 1

* * *

- Species on record: Homo sapiens
- Experiment Summary: Selectivity ratio of Ki for human kappa opioid receptor to Ki for human mu opioid receptor
Endpoint: Ratio Ki

Chemical Structure | Result
O=C(Nc1ccccc1)Nc1ccc2c(c1)[C@@]13CCCC[C@H]1[C@@H](C2)N(CC1CC1)CC3 | 0.5
O=C(Nc1ccc(I)cc1)Nc1ccc2c(c1)[C@@]13CCCC[C@H]1[C@@H](C2)N(CC1CCC1)CC3 | 0.5
O=C(Nc1ccc(I)cc1)Nc1ccc2c(c1)[C@@]13CCCC[C@H]1[C@@H](C2)N(CC1CC1)CC3 | 0.5
c1ccc(Nc2ccc3c(c2)[C@@]24CCCC[C@H]2[C@@H](C3)N(CC2CC2)CC4)cc1 | 0.5
